Tested on: C. guilliermondii
Starred links: 1 amine or outer side, 2 acyl side, 3 side chain; linkers in the order of their positions; H or OH if unused. Positions of bridges follow the written chain, without caps; N, C: chain ends. Non-standard residues stand in square brackets, D forms with d. Residues, ends and D or L forms follow the SMILES beside them. *: point of attachment. pTerphenylCO(4''-OnC5H11) = CCCCCOc1ccc(-c2ccc(-c3ccc(C(=O)*)cc3)cc2)cc1; Orn(4R-OH,5R-OH) = O=C([C@H](C[C@@H](O)[C@@H](O)N[*:3])N[*:1])[*:2]; hTyr(3S-OH,4S-OH) = N[C@H](C(=O)O)[C@H](O)[C@@H](O)c1ccc(O)cc1; Pro(3S-OH,4S-Me) = C[C@H]1CN[C@H](C(=O)O)[C@H]1O; Hyp = O=C(O)[C@@H]1C[C@@H](O)CN1
property: MIC90 (µg/mL)
Note: unit µg/mL is implicit; provide only the numeric part.

Here are 2 compounds together with their reported answers.
compound	val
OC(Cn1cncn1)(Cn1cncn1)c1ccc(F)cc1F	16
C[C@@H]1[C@H](O)[C@@H](C)/C=C/C=C/C=C/C=C/C=C/C=C/C=C/[C@H](O[C@@H]2O[C@H](C)[C@@H](O)[C@H](N)[C@@H]2O)C[C@@H]2O[C@](O)(C[C@@H](O)C[C@@H](O)[C@H](O)CC[C@@H](O)C[C@@H](O)CC(=O)O[C@H]1C)C[C@H](O)[C@H]2C(=O)O	0.25

Could you now consider this next compound?
In plain terms, CCCCCOc1ccc(-c2ccc(-c3ccc(C(=O)N[C@H]4C[C@@H](O)[C@@H](O)NC(=O)[C@@H]5[C@@H](O)[C@@H](C)CN5C(=O)[C@H]([C@@H](C)O)NC(=O)[C@H]([C@H](O)[C@@H](O)c5ccc(O)cc5)NC(=O)[C@@H]5C[C@@H](O)CN5C(=O)[C@H]([C@@H](C)O)NC4=O)cc3)cc2)cc1 [anidulafungin] ({pTerphenylCO(4''-OnC5H11)}-[Orn(4R-OH,5R-OH)]T[Hyp][hTyr(3S-OH,4S-OH)]T[Pro(3S-OH,4S-Me)]; lactam 1-C) has a documented MIC90 of 0.5

----------
assay remarks: Triazole drug levels in ABPA patients with asthma
Assay type: in vivo, human
settings: 452 patients, Oct 2009 to March 2021
Here the recorded median trough drug level is given for each entry.
Note: unit mg/L is implicit; provide only the numeric part.

> print(dat)
                                   compound                  property   val
1  CCC(C)n1ncn(-c2ccc(N3CCN(c4ccc(OCC5COC(Cn6cncn6)(c6ccc(Cl)cc6Cl)O5)cc4)CC3)cc2)c1=O (stereo not shown) [itraconazole]  median trough drug level  0.76
2  CC[C@@H]([C@H](C)O)n1ncn(-c2ccc(N3CCN(c4ccc(OC[C@@H]5CO[C@@](Cn6cncn6)(c6ccc(F)cc6F)C5)cc4)CC3)cc2)c1=O [posaconazole]  median trough drug level  1.39
3  C[C@@H](c1nc(-c2ccc(C#N)cc2)cs1)[C@](O)(Cn1cncn1)c1cc(F)ccc1F [isavuconazole]  median trough drug level  3.29

Could you now consider this next compound?
In plain terms, C[C@@H](c1ncncc1F)[C@](O)(Cn1cncn1)c1ccc(F)cc1F [voriconazole] has a documented median trough drug level of 0.82
